Every entry's value here was drawn from patent US20260294922A1.

- protocol_details: Pharmacokinetics after oral administration in mice
- Assay type: in vivo
- run_conditions: mouse, 50 mg/kg, plasma
observable: Cmax

Need Cmax of CN(C)C(=O)c1cc(NC(=O)c2cc3c(-c4cnc5[nH]ccc5c4)cccc3s2)ccc1O , thanks.
1.51 µM

====

- protocol_details: Pharmacokinetics after oral administration in mice
- Format: in vivo
- run_conditions: mouse, 50 mg/kg, plasma
observable: half-life
Answer as a quantity: numeral, then unit.

So what does the record say about half-life for CN(C)C(=O)c1cc(NC(=O)c2cc3c(-c4cnc5[nH]ccc5c4)cccc3s2)ccc1O [CDD-2728] ?
1.48 h

====

Measured IC50 values are reported for all entries that follow.
- target_entity: JNK2 (Homo sapiens)
- Sequence (P45984 whole entry): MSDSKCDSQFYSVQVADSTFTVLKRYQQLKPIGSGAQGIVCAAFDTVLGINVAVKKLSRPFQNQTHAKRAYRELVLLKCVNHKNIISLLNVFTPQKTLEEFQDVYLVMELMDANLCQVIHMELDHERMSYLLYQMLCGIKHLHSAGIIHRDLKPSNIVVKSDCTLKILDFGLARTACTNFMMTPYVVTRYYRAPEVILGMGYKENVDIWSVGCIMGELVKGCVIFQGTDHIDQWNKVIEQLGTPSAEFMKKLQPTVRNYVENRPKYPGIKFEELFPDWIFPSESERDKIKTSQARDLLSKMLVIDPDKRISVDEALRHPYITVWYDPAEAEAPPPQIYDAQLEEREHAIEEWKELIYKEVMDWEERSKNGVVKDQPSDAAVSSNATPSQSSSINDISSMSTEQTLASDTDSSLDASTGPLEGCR
- protocol_details: Promega NanoBRET intracellular target engagement (tracer K10 displacement), JNK2
Lab book: enter the figure in nM, no units written.

Would you please look over these solved cases?
What IC50 value was documented for this molecule, COc1ccc(NC(=O)c2cc3c(-c4cnc5[nH]ccc5c4)cccc3s2)cc1C(=O)N(C)C ?
520

Quick one: CN(C)C(=O)c1cc(NC(=O)c2cc3c(-c4cnc5[nH]ccc5c4)cccc3o2)ccc1O
4200

Field entry: CNC(=O)c1cc2c(-c3cnc4[nH]ccc4c3)cccc2s1
6100

Field entry: Cc1ccc(NC(=O)c2cc3c(-c4cnc5[nH]ccc5c4)cccc3s2)cc1C(=O)N(C)C
1000

***
Bench note: what IC50 did COc1ccc(NC(=O)c2cc3c(-c4cnc5[nH]cc(C)c5c4)cccc3s2)cc1C(=O)N(C)C show?
156

And for CN(C)C(=O)c1cc(NC(=O)c2nc3c(-c4cnc5[nH]ccc5c4)cccc3s2)ccc1O ?
1100

Please answer likewise for CNC(=O)CN1[C@H](CC(=O)NCCCN(C)c2ccc(F)cc2)CNC[C@H]1C
58000
